# credit: PubChem BioAssay

- studySystem: Dickkopf-related protein 1 (Homo sapiens)
- testMethodNotes: small molecules binding DKK1 protein – biochemical, small-molecule microarray, 635 nm fluorescence scan, primary screen (AID 1106);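 further: score merges emission near 667 nm with signal to noise over three replicate slides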
- testContext: higher = more signal
Provide the reported composite z-score of each item.
Respond using a number only.

Tell me the measured composite z-score of `Cc1ccc(-c2cccc(=O)o2)cc1` , please.
0.184

Tell me the measured composite z-score of O=C(C=C(CC(O)c1cccc(Cl)c1)OCCF)OCCF (stereo not drawn) , please.
-0.735

Tell me the measured composite z-score of COc1cc(C(O)C2C=CC3C(=O)NC(=O)C3N2Nc2ccc(Cl)cc2Cl)cc(OC)c1OC (stereo not drawn) , please.
-0.675

Tell me the measured composite z-score of `COc1ccc(C(=O)Nc2ccc(CN3C(=O)[C@]4(O[C@H](CCn5cc([C@H](O)c6ccccc6)nn5)[C@@H]([Si](C)(C)c5ccc(OC)cc5)[C@@H]4C)c4ccccc43)cc2)cc1` , please.
0.102

Tell me the measured composite z-score of CCOc1cc(C(O)C2C=CC3C(=O)NC(=O)C3N2Nc2ccccn2)ccc1O (stereo not drawn) , please.
0.107

Tell me the measured composite z-score of `C[N+](C)(C)CCCCCCNC(=O)[C@H]1C[C@H]2C(=O)N3CCC[C@H]3C(=O)N2[C@H]1c1cccc(OCCO)c1` , please.
0.705

Tell me the measured composite z-score of CC(C)C[C@H]1NC(=O)[C@H](C)NC(=O)[C@@]23C(=O)N[C@@H](Cc4ccccc4)C2[C@H](C)[C@@]2(C)O[C@H]2C3/C=C/C/C=C\CNC1=O (stereo partly drawn) , please.
0.29

Tell me the measured composite z-score of `NC(=O)NCC#Cc1ccc2c(c1)[C@]1(C(=O)N2)[C@H](c2ccc(O)cc2)N2[C@H](c3ccccc3)[C@H](c3ccccc3)OC(=O)[C@H]2[C@@H]1C(=O)NC[C@H](O)c1ccccc1` , please.
-1.53
